# experiment summary: Protein binding healthy human serum
# Type: ADME, cell-free
# applied conditions: read-out: PB
measured attribute: fraction unbound

Input line: For CCCCCCCCCCNCCN[C@@]1(C)C[C@H](O[C@H]2[C@H](Oc3c4cc5cc3Oc3ccc(cc3Cl)[C@@H](O)[C@@H](NC(=O)[C@@H](CC(C)C)NC)C(=O)N[C@@H](CC(N)=O)C(=O)N[C@H]5C(=O)N[C@H]3C(=O)N[C@H](C(=O)N[C@H](C(=O)O)c5cc(O)c(CNCP(=O)(O)O)c(O)c5-c5cc3ccc5O)[C@H](O)c3ccc(c(Cl)c3)O4)O[C@H](CO)[C@@H](O)[C@@H]2O)O[C@@H](C)[C@H]1O , what is its reported fraction unbound?
Output line: ≤ 0.1
